Quick reference: Coupled exchange IC50 (5 min) of the listed items.
- target.system: GDP-bound KRAS protein (aa 1-169), containing both G12C and C118A amino acid substitutions (Homo sapiens, UniProt P01116, C118A/G12C)
- Sequence (P01116 1-169 isoform P01116-2 G12C/C118A): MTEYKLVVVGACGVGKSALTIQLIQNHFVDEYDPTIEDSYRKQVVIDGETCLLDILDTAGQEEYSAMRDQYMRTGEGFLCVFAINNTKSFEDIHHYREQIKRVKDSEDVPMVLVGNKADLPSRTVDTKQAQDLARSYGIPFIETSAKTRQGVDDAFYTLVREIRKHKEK
- assay.comment: Coupled nucleotide exchange assay (SOS-mediated, AlphaScreen)
- Type: biochemical
- experimental.setup: 5 min compound pre-incubation

{"columns": ["compound", "Coupled exchange IC50 (5 min)"],
 "data": [
  ["C=CC(=O)N1CCN(c2nc(=O)n(-c3c(C)ccnc3C(C)C)c3nc(-c4cc(C5CC5)ccc4F)c(Cl)cc23)[C@@H](C)C1 (atropisomer, axis not shown; (M))", "0.06 | nda μM"],
  ["C=CC(=O)N1CCN(c2nc(=O)n(-c3c(F)cccc3C(C)C)c3nc(-c4c(O)cccc4F)c(F)cc23)[C@@H](C)C1 [Example 59-2]", "0.257 | nda μM"],
  ["C=CC(=O)N1CCN(c2nc(=O)n(-c3ccccc3)c3nc(-c4c(O)cccc4F)c(Cl)cc23)[C@@H](C)C1", "3.45 | nda μM"],
  ["C=CC(=O)N1CCN(c2nc(=O)n(-c3ccccc3C(C)C)c3c(C)c(-c4c(O)cccc4F)c(Cl)cc23)[C@@H](C)C1 (single isomer, unassigned)", "0.151 µM"],
  ["C=CC(=O)N1CCN(c2nc(=O)n(-c3c(C(C)C)ncnc3C(C)C)c3nc(-c4ccc(F)cc4N)c(Cl)cc23)[C@@H](C)C1", "0.251 | nda μM"],
  ["C=CC(=O)N1CCN(c2nc(=O)n(-c3c(CC)cccc3CC)c3nc(N4CC[C@@H](F)C4)c(Cl)cc23)[C@@H](C)C1", "88 | nda μM"]
]}

---

- target.system: GDP-bound KRAS protein (aa 1-169), containing both G12C and C118A amino acid substitutions (Homo sapiens, UniProt P01116, C118A/G12C)
- assay.comment: Coupled nucleotide exchange assay (SOS-mediated, AlphaScreen)
- Assay type: biochemical
- experimental.setup: 5 min compound pre-incubation
// reported Coupled exchange IC50 (5 min) for each item listed

{"columns": ["compound", "Coupled exchange IC50 (5 min)"],
 "data": [
  ["C=CC(=O)N1CCN(c2nc(=O)n(-c3c(C)cccc3CC)c3nc(-c4ccccc4F)c(Cl)cc23)[C@@H](C)C1 (single isomer, unassigned) [Example 55-9-1]", "0.804 | nda μM"],
  ["C=CC(=O)N1CCN(c2nc(=O)n(-c3ncccc3CC(C)C)c3nc(-c4c(O)cccc4F)c(Cl)cc23)[C@@H](C)C1 [Example 54-101]", "0.162 | nda μM"],
  ["C=CC(=O)N1CCN(c2nc(=O)n(-c3c(C)ccnc3C(C)C)c3nc(-c4c(F)ccc(C)c4O)c(F)cc23)[C@@H](C)C1 (atropisomer, axis not shown; (M)) [Example 72-10]", "0.158 | nda μM"],
  ["C=CC(=O)N1C[C@@H](C)N(c2nc(=O)n(-c3c(C)ccnc3C(C)C)c3nc(-c4ccccc4F)c(Cl)cc23)[C@H](C)C1 (single isomer, unassigned) [Example 78-16]", "16.6 | nda μM"],
  ["C=CC(=O)N1CCN(c2nc(=O)n(-c3ccncc3C3CC3)c3nc(-c4c(O)cccc4F)c(Cl)cc23)[C@@H](C)C1 [Example 54-59]", "0.22 | nda μM"],
  ["C=CC(=O)N1CCN(c2nc(=O)n(-c3ccccc3C(C)C)c3nc(-c4ccc(F)cc4F)c(Cl)cc23)[C@@H](C)C1 (single isomer, unassigned) [Example 54-85-2]", "0.078 | nda μM"],
  ["C=CC(=O)N1CCN(c2nc(=O)n(-c3nccnc3C3CC3)c3nc(-c4ccccc4F)c(Cl)cc23)[C@@H](C)C1 [Example 60-10]", "0.328 | nda μM"],
  ["C=CC(=O)N1CCN(c2nc(=O)n(-c3c(C(C)C)nc(N)nc3C(C)C)c3nc(-c4ccccc4F)c(Cl)cc23)[C@@H](C)C1 [Example 139]", "0.117 | nda μM"],
  ["C=CC(=O)N1C[C@H]2C[C@@H](C1)N2c1nc(=O)n(-c2c(C)ccnc2C(C)C)c2nc(-c3ccccc3F)c(Cl)cc12 (single isomer, unassigned) [Example 78-17]", "26 | nda μM"],
  ["C=CC(=O)N1CCN(c2nc(=O)n(-c3nccc4c3CCCC4)c3nc(-c4c(O)cccc4F)c(Cl)cc23)[C@@H](C)C1 [Example 55-25]", "2.29 | nda μM"],
  ["C=CC(=O)N1CCN(c2nc(=O)n(-c3c(C#N)cccc3C(C)C)c3nc(-c4ccccc4F)c(Cl)cc23)[C@@H](C)C1 (single isomer, unassigned) [Example 60-20-1]", "10.2 | nda μM"],
  ["C=CC(=O)N1CCN(c2nc(=O)n(-c3c(C(C)C)ncnc3C(C)C)c3nc(-c4ccc(C#N)cc4F)c(Cl)cc23)[C@@H](C)C1 [Example 87-4]", "0.254 | nda μM"],
  ["C=CC(=O)N1CCN(c2nc(=O)n(-c3c(C)cccc3CC)c3nc(-c4ccccc4F)c(Cl)cc23)[C@@H](C)C1 [Example 55-9]", "0.24 | nda μM"],
  ["C=CC(=O)N1CCN(c2nc(=O)n(-c3c(C)ccnc3C(C)C)c3nc(-c4ccccc4F)c(Cl)cc23)[C@@H](CO)C1 (single isomer, unassigned) [Example 78-14]", "0.133 | nda μM"],
  ["C=CC(=O)N1CCN(c2nc(=O)n(-c3c(C)ccnc3C(C)C)c3nc(Cl)c(F)cc23)[C@@H](C)C1 [Example 58-21]", "17.5 | nda μM"],
  ["C=CC(=O)N1CCN(c2nc(=O)n(-c3c(CC)cccc3CC)c3nc(N4CCOC(C5CC5)C4)c(Cl)cc23)[C@@H](C)C1 (some centres unmarked) [Example 66-25]", "95 | nda μM"],
  ["C=CC(=O)N1CCN(c2nc(=O)n(-c3c(C)cccc3C3CC3)c3nc(-c4c(O)cccc4F)c(Cl)cc23)[C@@H](C)C1 [Example 55-15]", "0.055 | nda μM"],
  ["C=CC(=O)N1CCN(c2nc(=O)n(-c3c(OC)ncnc3C(C)C)c3nc(-c4ccccc4F)c(Cl)cc23)[C@@H](C)C1 (single isomer, unassigned) [Example 54-107-2]", "0.067 | nda μM"],
  ["C=CC(=O)N1CCN(c2nc(=O)n(-c3ncccc3C(C)C)c3cc(-c4ccccc4F)c(Cl)cc23)[C@@H](C)C1 [Example 104]", "0.062 | nda μM"],
  ["C=CC(=O)N1CCN(c2nc(C#N)c(-c3ccccc3C(C)C)c3nc(-c4ccccc4F)c(Cl)cc23)CC1 [Example 146]", "38.7 | nda μM"],
  ["C=CC(=O)N1CCN(c2nc(=O)n(-c3cncnc3C(C)C)c3nc(-c4c(O)cccc4F)c(Cl)cc23)[C@@H](C)C1 [Example 54-26]", "0.105 | nda μM"],
  ["C=CC(=O)N1CCN(c2nc(=O)n(-c3c(C)ccnc3C(C)C)c3nc(-c4ccccc4F)c(Cl)cc23)[C@H](C(F)(F)F)C1 (single isomer, unassigned) [Example 78-9-1]", "1.26 | nda μM"],
  ["C=CC(=O)N1CCN(c2nc(=O)n(-c3ccccc3C)c3nc(Cl)c(Cl)cc23)[C@@H](C)C1 [Example 60-12]", "22.2 | nda μM"]
]}

---

Reported Coupled exchange IC50 (5 min) values follow for various molecules
- target.system: GDP-bound KRAS protein (aa 1-169), containing both G12C and C118A amino acid substitutions (Homo sapiens, UniProt P01116, C118A/G12C)
- assay.comment: Coupled nucleotide exchange assay (SOS-mediated, AlphaScreen)
- Type: biochemical
- experimental.setup: 5 min compound pre-incubation
recorded.metric: Coupled exchange IC50 (5 min)

{"columns": ["molecule", "endpoint.value"],
 "data": [
  ["C=CC(=O)N1CCN(c2nc(=O)n(C)c3nc(-c4c(C)ccc5[nH]ncc45)c(Cl)cc23)[C@@H](C)C1", "38.6 | nda μM"],
  ["C=CC(=O)N1CCN(c2nc(=O)n(-c3ccccc3C3(C)CC3)c3nc(-c4ccccc4F)c(Cl)cc23)[C@@H](C)C1 (single isomer, unassigned) [Example 54-99-1]", "1.52 | nda μM"],
  ["C=CC(=O)N1CCN(c2nc(=O)n(-c3c(C)cccc3C(C)C)c3nc(-c4c(O)cccc4Cl)c(F)cc23)[C@@H](C)C1 (single isomer, unassigned) [Example 68-1-2]", "0.613 | nda μM"],
  ["C=CC(=O)N1CCN(c2nc(=O)n(-c3c(C)ncnc3C(C)C)c3nc(-c4ccccc4F)c(Cl)cc23)[C@@H](C)C1 (single isomer, unassigned) [Example 55-13-2]", "0.02 | nda μM"],
  ["C=CC(=O)N1CCN(c2nc(=O)n(-c3ccccc3OC(F)(F)F)c3nc(-c4c(O)cccc4F)c(Cl)cc23)[C@@H](C)C1", "5.65 | nda μM"],
  ["C=CC(=O)N1CCN(c2nc(=O)n(-c3cccnc3CC(C)C)c3nc(-c4ccccc4F)c(Cl)cc23)[C@@H](C)C1", "0.147 | nda μM"]
]}
